Origin of measurements: the supplement of paper PMC8612539

system: Pasteurella multocida; assay: minimum inhibitory concentration (MIC); settings: isolate (source animal id): 315
Give measured minimum inhibitory concentration for each item. Keep answers brief.
// return numeric value only (unit: µg/mL, not printed)

Given CNC(C)C1CCC(N)C(OC2C(N)CC(N)C(OC3OCC(C)(O)C(NC)C3O)C2O)O1 (stereo not given) , state its recorded minimum inhibitory concentration.
4

Entry CCCNC[C@]1(O)[C@H](C)O[C@@H](O[C@H]2[C@H](C)[C@@H](O[C@@H]3O[C@H](C)C[C@H](N(C)C)[C@H]3O)[C@](C)(O)C[C@@H](C)CN[C@H](C)[C@@H](O)[C@](C)(O)[C@@H](CC)OC(=O)[C@@H]2C)C[C@@]1(C)OC : reported minimum inhibitory concentration = ?
16

###

system: Mannheimia haemolytica; experiment: minimum inhibitory concentration (MIC); conditions: isolate (source animal id): 135
Provide the reported minimum inhibitory concentration of each item.

Record request: minimum inhibitory concentration value, item C=C[C@]1(C)C[C@@H](OC(=O)CSCCN(CC)CC)[C@]2(C)[C@H](C)CC[C@]3(CCC(=O)[C@H]32)[C@@H](C)[C@@H]1O [Tiamulin]
8 µg/mL

Which minimum inhibitory concentration is listed for CCN1CCN(c2cc3c(cc2F)c(=O)c(C(=O)O)cn3C2CC2)CC1 [Enrofloxacin] ?
> 2 µg/mL

Item CNC(C)C1CCC(N)C(OC2C(N)CC(N)C(OC3OCC(C)(O)C(NC)C3O)C2O)O1 (stereo not drawn) [Gentamicin] has what recorded minimum inhibitory concentration?
> 16 µg/mL

###

Could you please report measured minimum inhibitory concentration for the items listed next?
tested on: Pasteurella multocida; experiment: minimum inhibitory concentration (MIC); details: isolate (source animal id): 279

I have this molecule here, COc1cc(Cc2cnc(N)nc2N)cc(OC)c1OC.Cc1cc(NS(=O)(=O)c2ccc(N)cc2)no1 [trimethoprim-sulfamethoxazole] , and I need its recorded minimum inhibitory concentration.
≤ 2 µg/mL

Requested read-out: minimum inhibitory concentration. Entry: CCN1CCN(c2cc3c(cc2F)c(=O)c(C(=O)O)cn3C2CC2)CC1 [Enrofloxacin]
0.5 µg/mL

Looking for the measured minimum inhibitory concentration of CCC[C@@H]1C[C@@H](C(=O)N[C@@H]([C@H]2O[C@H](SC)[C@H](O)[C@@H](O)[C@H]2O)[C@H](C)Cl)N(C)C1 [Clindamycin] , can you help?
> 16 µg/mL

Need minimum inhibitory concentration of CCCNC[C@]1(O)[C@H](C)O[C@@H](O[C@H]2[C@H](C)[C@@H](O[C@@H]3O[C@H](C)C[C@H](N(C)C)[C@H]3O)[C@](C)(O)C[C@@H](C)CN[C@H](C)[C@@H](O)[C@](C)(O)[C@@H](CC)OC(=O)[C@@H]2C)C[C@@]1(C)OC [Tulathromycin] , thanks.
≤ 8 µg/mL

Name the reported minimum inhibitory concentration value associated with the molecule CS(=O)(=O)c1ccc([C@@H](O)[C@@H](CF)NC(=O)C(Cl)Cl)cc1 [Florfenicol]
1 µg/mL

Query: minimum inhibitory concentration; subject: CNC(C)C1CCC(N)C(OC2C(N)CC(N)C(OC3OCC(C)(O)C(NC)C3O)C2O)O1 (centres undefined) [Gentamicin]
4 µg/mL

So what's the measured minimum inhibitory concentration for this one? CO/N=C(\C(=O)N[C@@H]1C(=O)N2C(C(=O)O)=C(CSC(=O)c3ccco3)CS[C@H]12)c1csc(N)n1 [Ceftiofur]
≤ 0.25 µg/mL

Form field: reported minimum inhibitory concentration of CCCN1C[C@H](C)[C@@H](O)[C@](C)(O)[C@@H](CC)OC(=O)[C@H](C)[C@@H](O[C@H]2C[C@@](C)(OC)[C@@H](O)[C@H](C)O2)[C@H](C)[C@@H](O[C@@H]2O[C@H](C)C[C@H](N(C)C)[C@H]2O)[C@](C)(O)C[C@H]1C [Gamithromycin]
8 µg/mL

Requested field: minimum inhibitory concentration. Item: CC1(C)S[C@@H]2[C@H](NC(=O)[C@H](N)c3ccccc3)C(=O)N2[C@H]1C(=O)O [Ampicillin]
≤ 0.25 µg/mL
